All figures here come from patent US20100105694A1.

Molecular target: human adrenergic-α2C receptor (Homo sapiens, UniProt P18825)
Construct: expressed in transfected cells; host or cells: CHO cells, stably transfected; membranes
Assay: Radioligand binding experiment for α2C-adrenoceptor ([3H]raulwolscine, CHO cell membranes)
Details: [3H]raulwolscine 1 nM, membranes of CHO cells transfected with human α2C receptor; read-out: h-α2C pIC50 (converted)
MEASURED_QUANTITY: log10(IC50) (log10 of the value in nM)
Parameter value (number): base-10 log of IC50 in nM.

Some entries whose results are on file:
>>> measurement("O=c1c(NC2CCN(CCc3ccccc3)CC2)nccn1Cc1ccc(Br)cc1")
2.50
>>> measurement("NCCCn1ccnc(NC2CCN(CC(c3ccccc3)c3ccccc3)CC2)c1=O")
2.70
>>> measurement("CN(C)CCCn1ccnc(NC2CCN(Cc3ccc(OCc4ccccc4)cc3)CC2)c1=O")
2.90
>>> measurement("CN(CCc1ccccc1)C1CCN(c2nccn(CCC(=O)c3ccccc3)c2=O)CC1")
1.80
>>> measurement("O=C(Cn1ccnc(NC2CCN(CCCc3ccccc3)CC2)c1=O)c1ccccc1")
2.60
>>> measurement("NCc1ccc(Cn2ccnc(NC3CCN(Cc4ccc(-c5ccccc5)cc4)CC3)c2=O)cc1")
2.40

Inquiry: // returns reported log10(IC50) for input O=c1c(NC2CCN(Cc3ccc(-c4ccccc4)cc3)CC2)nccn1CC1CCCCO1 (stereo not shown)
Reply text: 2.80

Inquiry: // returns reported log10(IC50) for input O=C1c2ccccc2C(=O)N1CCCn1ccnc(NC2CCN(Cc3ccc(OCc4ccccc4)cc3)CC2)c1=O
Reply text: 2.40

Inquiry: // returns reported log10(IC50) for input O=c1c(NC2CCN(Cc3ccc(OCc4ccccc4)cc3)CC2)nccn1CCN1CCCCC1
Reply text: 2.90

Inquiry: // returns reported log10(IC50) for input CC(C)(C)OC(=O)NCCCn1ccnc(NC2CCN(CC(c3ccccc3)c3ccccc3)CC2)c1=O
Reply text: 2.50

Inquiry: // returns reported log10(IC50) for input CC(C)(C)C(=O)Cn1ccnc(NC2CCN(CCCc3ccccc3)CC2)c1=O
Reply text: 2.50

Inquiry: // returns reported log10(IC50) for input COC(=O)Cn1ccnc(NC2CCN(Cc3ccc(-c4ccccc4)cc3)CC2)c1=O
Reply text: 2.50

Inquiry: // returns reported log10(IC50) for input NCc1ccc(Cn2ccnc(NC3CCN(CC(c4ccccc4)c4ccccc4)CC3)c2=O)cc1
Reply text: 2.80

----------
Target: 5HT-Transporter (Homo sapiens)
Construct: Human platelet membranes (Oceanix Biosciences Corporation, Hanover, Md., USA) were thawed; tissue Oceanix Biosciences Corporation; host or cells: human platelet membranes
Sequence (P31645 whole entry): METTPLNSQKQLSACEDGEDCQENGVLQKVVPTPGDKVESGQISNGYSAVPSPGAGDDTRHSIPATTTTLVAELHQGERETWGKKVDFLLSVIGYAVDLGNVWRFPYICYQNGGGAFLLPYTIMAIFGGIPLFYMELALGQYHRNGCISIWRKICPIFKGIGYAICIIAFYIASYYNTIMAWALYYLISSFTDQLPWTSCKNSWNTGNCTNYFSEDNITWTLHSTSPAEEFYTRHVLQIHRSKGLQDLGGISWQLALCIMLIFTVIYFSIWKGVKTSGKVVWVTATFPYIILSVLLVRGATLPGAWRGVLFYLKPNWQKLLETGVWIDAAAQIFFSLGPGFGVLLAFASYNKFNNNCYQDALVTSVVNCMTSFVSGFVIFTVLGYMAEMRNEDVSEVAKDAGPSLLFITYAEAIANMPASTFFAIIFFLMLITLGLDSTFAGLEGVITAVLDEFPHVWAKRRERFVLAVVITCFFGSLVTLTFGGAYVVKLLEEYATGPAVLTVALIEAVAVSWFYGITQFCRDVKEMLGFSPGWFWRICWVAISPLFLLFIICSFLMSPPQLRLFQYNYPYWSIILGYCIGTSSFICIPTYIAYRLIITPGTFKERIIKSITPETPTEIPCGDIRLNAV
Test: Binding experiment for the 5HT-transporter ([3H]paroxetine, human platelet membranes)
Details: [3H]paroxetine 0.5 nM, read-out: h-5HTT pIC50 (converted)
MEASURED_QUANTITY: IC50

>>> measurement("CC(C)(C)C(=O)Cn1ccnc(NC2CCN(CCCc3ccccc3)CC2)c1=O [Compound 7-10]")
"> 10 µM"

Inquiry: // returns reported IC50 for input C=CCn1ccnc(N2CCN(CCc3ccccc3)CC2)c1=O [Compound 10-4]
Reply text: > 10 µM

Inquiry: // returns reported IC50 for input O=c1c(NC2CCN(CC(c3ccccc3)c3ccccc3)CC2)nccn1Cc1ccccc1Br [Compound 9-7]
Reply text: > 10 µM

----------
Target: human adrenergic-α2C receptor (Homo sapiens, UniProt P18825)
Construct: expressed in transfected cells; host or cells: CHO cells, stably transfected; membranes
Sequence (P18825 1-462): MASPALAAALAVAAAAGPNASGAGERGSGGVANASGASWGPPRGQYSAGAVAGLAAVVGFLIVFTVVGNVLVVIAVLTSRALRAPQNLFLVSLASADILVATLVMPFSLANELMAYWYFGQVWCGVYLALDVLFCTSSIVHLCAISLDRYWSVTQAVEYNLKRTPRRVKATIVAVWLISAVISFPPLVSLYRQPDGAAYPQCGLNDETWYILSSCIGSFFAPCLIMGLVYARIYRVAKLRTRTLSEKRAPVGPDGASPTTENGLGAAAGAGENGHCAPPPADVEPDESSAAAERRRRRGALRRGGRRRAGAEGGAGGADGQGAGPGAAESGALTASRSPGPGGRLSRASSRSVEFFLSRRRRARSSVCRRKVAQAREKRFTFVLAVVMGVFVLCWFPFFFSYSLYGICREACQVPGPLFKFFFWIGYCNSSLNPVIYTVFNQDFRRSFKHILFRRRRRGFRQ
Experiment: Radioligand binding experiment for α2C-adrenoceptor ([3H]raulwolscine, CHO cell membranes)
Details: [3H]raulwolscine 1 nM, membranes of CHO cells transfected with human α2C receptor; read-out: h-α2C pIC50 (converted)
MEASURED_QUANTITY: IC50 (µM)
Provide the reading as a plain figure in µM.

Some entries whose results are on file:
>>> measurement("NCc1ccc(Cn2ccnc(NC3CCN(Cc4ccc(OCc5ccccc5)cc4)CC3)c2=O)cc1")
0.631
>>> measurement("CC(C)(C)OC(=O)NCCCn1ccnc(N2CCN(Cc3ccc(-c4ccccc4)cc3)CC2)c1=O")
0.631
>>> measurement("O=c1c(NC2CCN(CCCc3ccccc3)CC2)nccn1Cc1ccc(Br)cc1")
0.501
>>> measurement("CC(C)(C)OC(=O)NCCCn1ccnc(NC2CCN(CCCc3ccccc3)CC2)c1=O")
0.0794
>>> measurement("O=c1c(NC2CCN(Cc3ccc(-c4ccccc4)cc3)CC2)nccn1Cc1ccccc1Br")
0.501
>>> measurement("NCc1ccc(Cn2ccnc(NC3CCN(CCc4ccccc4)CC3)c2=O)cc1")
0.398
>>> measurement("O=c1c(NC2CCN(CCCc3ccccc3)CC2)nccn1Cc1ccccc1Br")
0.398
>>> measurement("NCc1ccc(Cn2ccnc(NC3CCN(CCCc4ccccc4)CC3)c2=O)cc1")
0.1
>>> measurement("O=C1c2ccccc2C(=O)N1CCCn1ccnc(NC2CCN(CC(c3ccccc3)c3ccccc3)CC2)c1=O")
0.398
>>> measurement("O=c1c(NC2CCN(Cc3ccc(-c4ccccc4)cc3)CC2)nccn1CCN1CCCCC1")
0.1

Inquiry: // returns reported IC50 for input CCCn1ccnc(NC2CCN(CCCc3ccccc3)CC2)c1=O
Reply text: 0.501

Inquiry: // returns reported IC50 for input O=c1c(NC2CCN(Cc3ccc(-c4ccccc4)cc3)CC2)nccn1Cc1ccc2ccccc2n1
Reply text: 0.794
